Values were extracted from the supplement of paper PMC9170038.

Provide the reported apparent KD of MS2 coat protein of each item.
test system: MS2 coat protein; test: apparent KD of MS2 coat protein, switch ON state; designed switch direction (-1 OFF switch, 1 ON switch): -1; higher = weaker reporter binding; details: FMN input: 0 or 200 uM; Eterna round: R93 (includes R88 designs)
Answers are plain numbers, in nM.

Look over these answered cases.
AAAAACCUAGGAUAUACAUGAGGAUCACCCAUGUAAAAAAAAAAAAAGGGAAAAAAAAGUAGAAGGAGGAAAAA [Sekhemre Wadjkhaw Sobekemsaf I] = 20.6
GAAAACCUAGGAUAUACAUGAGGAUCACCCAUGUCAGUAGACUGGGUAAGGUCUCUCAGUAGAAGGAGGACCCA [Ratilein] = 315
GAAAAGUGAGGAUAUUCGGAUAGGAAAACGAAAACCUAUCCGAAGAAGGCACAUGAGGAUCACCCAUGUAAAAG [Mat - Exaclusion 4 - Eli mod - D36] = 41.2
AAGAAGUUAGGAUAUACAAGAAAGAAAGAAAAGAAAAGAAAACAUGAGGAUCACCCAUGUAGAAGGAACUAGAA [EteRNA is fun!] = 26.8
AACAGUACAGGAUAUACAUGAGGAUCACCCAUGUAGAGAAAAUAAAACAAAAAUAAAAGUAGAAGGGUACUGGA [Ruby 47] = 26.6

Dear colleague, I am looking for the recorded apparent KD of MS2 coat protein of the following sequence: AAGAAACAUGAGGAUCACCCAUGUGAGGAUAUCCAAAAGAAAAGAAAAGAAAGAAGAAGGAGAAGGCACAAAGG [Nikare] 88.5
